Reference source: ChEMBL document CHEMBL1145459

- PROCEDURE_TEXT: Solubility in simulated intestinal fluid by high-throughput automated format
- Assay type: physicochemical
EXPERIMENTAL_READOUT: solubility (µg/mL)

smiles_structure=Nc1nc2c(Oc3cc(-c4ccc(C(F)(F)F)cc4)ncn3)cccc2[nH]c1=O test_result=9.2
smiles_structure=CC(=O)Nc1nc2c(Oc3cc(-c4ccc(C(F)(F)F)cc4)ncn3)cccc2s1 test_result=6.6

----------
- PROCEDURE_TEXT: Bioavailability in fasted Sprague-Dawley rat at 5 mg/kg, po
- Format: ADME, organism-based
- CONDITION_NOTES: in vivo
EXPERIMENTAL_READOUT: bioavailability (%)
Your answer should be a plain number; it is taken to be in %.

Exercise: Can you look up the measured bioavailability of `Nc1nc2c(Oc3cc(-c4ccc(C(F)(F)F)cc4)ncn3)cccc2[nH]c1=O` for me?
Solution: 7
